- Test system: IGROV-1
- assay.name: NCI tumour cell line growth inhibition, 48 h
Calls of active or inactive are those of the source. No stated cut-off is given here; in the data, active = GI50 up to about 1.1 µM and inactive = higher.
Classes used: y = active, n = inactive

CC(C)(C)c1ccc(C(O)(c2ccc(C(C)(C)C)cc2)c2ccc(C(C)(C)C)cc2)cc1 | n
O=[N+]([O-])c1ccc2[nH]c(=S)[nH]c(=S)c2c1 | n
Cn1c(=O)c(C2c3ccccc3Oc3c2c(=O)n(C)c2ccccc32)c(O)c2ccccc21 (centres undefined) | n
COC(=O)n1c(C)c(C=O)c2ccc(OC)cc21 | n
O=C1Nc2ccccc2/C1=N/Nc1ccc([N+](=O)[O-])cc1[N+](=O)[O-] | n
COP(=O)(O)/C=C/C(NC(=O)C(Cl)(Cl)Cl)c1ccccc1 (centres undefined) | n
CN(C)CCNC(=O)c1c2ccccc2cc2ccccc12 | n
Cn1c2n/c(=N\c3ccc(Cl)cc3)[n+]3ccc4ccccc4c3c-2c([O-])n1-c1ccccc1 | n
O=C1Nc2c(Cl)cc(Cl)cc2/C1=N/N=C/c1ccco1 | n
COc1cccc2c1C(=O)c1c(O)c3c(c(O)c1C2=O)C[C@@](O)(C(=O)CO)CC3OC1CC(N(C)CCOCC(OC(C)=O)OC(C)=O)C(O)C(C)O1 (some centres undefined) | y
CCN(CC)C(=S)N/N=C(\C)c1ccccc1O | n
NC(=O)c1nnsc1NN=O | n
N=C(N)SCCCN | n
CNC(=O)C(C)C1C(=O)/C(=C(O)/C=C\C(C)=C\C(C)C2OC3(C)OC(C=CC34CO4)C2C)C(=O)N1C1CCC(O)C(C)O1 (centres undefined) | n

###

- Tested on: SW-620
- assay.name: NCI tumour cell line growth inhibition, 48 h
The source made the active and inactive calls. Cut-off read from the data, not from the text of the source: active = GI50 up to about 1.1 µM and inactive = higher.
Classes used: active, inactive

COc1cc2c(c(OC)c1OC)-c1cccc(=O)cc1C(NC(C)=O)CC2 (stereo not drawn) | active
CC(=O)C1=C(c2ccccc2)N(C2OC(CO)C(O)C(O)C2O)C(S)=C(C#N)C1c1ccc(Cl)cc1 (stereo not drawn) | inactive
CC(=O)O[C@H]1CC[C@@]2(C)C(=CC[C@H]3[C@@H]4C[C@H](N5CCOCC5)[C@H](OC(C)=O)[C@@]4(C)CC[C@@H]32)C1 | inactive

###

- Test system: HOP-92
- assay.name: NCI tumour cell line growth inhibition, 48 h
Activity calls are given as the source filed them. Cut-off read from the data, not from the text of the source: active = GI50 up to about 1.1 µM and inactive = higher.
Classes used: active, inactive

N#Cc1[nH]c(=O)n(-c2ccc([N+](=O)[O-])cc2)c1N | inactive
O=C1NC(Nc2ccccc2)=N/C1=C\c1c(Cl)cccc1Cl | inactive
CCOC(=O)c1ccc(/N=C2\S/C(=C\C(=S)Nc3ccccc3)N(c3ccccc3)\C2=N/c2ccc(C(=O)OCC)cc2)cc1 | inactive
Cc1cccc2c(NCCN(C)C)c3cccc(C(=O)NCCN(C)C)c3nc12 | active
COC(=O)/C(=N\N)C(C(=O)C(=O)Nc1cccc([N+](=O)[O-])c1)c1nc2ccc(C(=O)c3ccccc3)cc2nc1O (stereo not given) | inactive
O=c1oc2ccc([N+](=O)[O-])cc2c(Nc2ccc3c(c2)Sc2ccccc2O3)c1[N+](=O)[O-] | inactive
COCCN1C2=CCCCC2=Nc2c(N)nc(N)nc21 | inactive
O=C(NC(Nc1ccc(F)c(Cl)c1)(C(F)(F)F)C(F)(F)F)OCc1ccccc1 | inactive
CC(=O)c1sc2c(c1OC(=O)c1ccco1)c(=O)n(-c1ccccc1)c(=S)n2-c1ccccc1 | inactive
CC1(CCCO)CCCCCC(C)(CCCO)C1=O (stereo not given) | inactive

###

- Test system: SN12C
- assay.name: NCI tumour cell line growth inhibition, 48 h
Activity calls are given as the source filed them. No stated cut-off is given here; in the data, active = GI50 up to about 1.1 µM and inactive = higher.
observation.type: GI50

O=C1CNS(=O)(=O)N1 | > 100 µM (inactive)
NC(CCSCC(F)(F)F)C(=O)O (centres undefined) | > 100 µM (inactive)
Cn1c(=O)c2c([nH]/c(=N/N=C/c3ccccc3C(=O)O)n2C)n(C)c1=O | > 100 µM (inactive)
COc1cccc(/C=C/c2ccnc3ccccc23)c1OC | > 10 µM (inactive)

###

Examples of compounds with documented GI50 follow.
- System: CCRF-CEM
- assay.name: NCI tumour cell line growth inhibition, 48 h
Active and inactive are the calls of the source. Rule as the data show it: active = GI50 up to about 1.1 µM and inactive = higher.
observation.type: GI50

Cn1cnc2[nH]c(=O)[nH]c(=S)c21 | > 100 µM (inactive)
CCOC(CN(C)C(=O)Nc1cccc2ccccc12)OCC | > 10 µM (inactive)
COc1ccc(C(CC(=O)C(C)(C)CN2CCCCC2)SCCS(=O)(=O)O)cc1 (stereo not given) | 17.1 µM (inactive)
CC1(C)C(c2ccccc2)=[N+]([O-])C(C)(C)N1O | > 10 µM (inactive)
COc1cccc(N2C(=O)[C@H]3CC(C)c4c([nH]c5ccccc45)[C@H]3C2=O)c1 (stereo not given in full) | 64.4 µM (inactive)

###

Examples of compounds with documented GI50 follow.
- Tested on: HT-29
- assay.name: NCI tumour cell line growth inhibition, 48 h
Calls of active or inactive are those of the source. No stated cut-off is given here; in the data, active = GI50 up to about 1.1 µM and inactive = higher.
observation.type: GI50

N#CC1=CNc2sccc2S1(=O)=O | > 100 µM (inactive)
O=[N+]([O-])C(/C=C(\Cl)[N+](=O)[O-])=C(Nc1ccccc1)Nc1ccccc1 | 6.21 µM (inactive)
O=C(CC1(O)CCCCC1)OC1CCCC1 | > 100 µM (inactive)
CC1=CC[C@H](C)C(C)(C)C1/C=C/C(C)=C/CC[C@@]1(CO)[C@H](CCCO)/C(=C(/C)C=O)CC[C@]1(C)O (stereo not given in full) | 2.77 µM (inactive)
CCOC(=O)C1Cc2c(cc3c4c(cccc24)N(C(C)=O)C3)N(C)C1 (stereo not given) | > 100 µM (inactive)

###

- System: MDA-N
- assay.name: NCI tumour cell line growth inhibition, 48 h
Active and inactive are the calls of the source. Cut-off read from the data, not from the text of the source: active = GI50 up to about 1.1 µM and inactive = higher.
Classes used: 1 for active, -1 for inactive

CN(C)C(=C1c2cc([N+](=O)[O-])ccc2-c2ccc([N+](=O)[O-])cc21)N(C)C | -1
O=C(CC(=O)Nc1ccccc1)NNC(Sc1ccccc1)c1cc(/N=N/c2ccc(Br)cc2)ccc1O (stereo not given) | -1
COC(=O)C1C(O)CCC2CN3CCc4c([nH]c5cccc(OC)c45)C3CC21 (stereo not given) | -1
CC(=O)c1sc2c(c1OC(=O)c1ccco1)c(=O)n(-c1ccccc1)c(=S)n2-c1ccccc1 | -1
Nc1nnc2ccc(Cl)cc2[n+]1[O-] | -1
O=C(O)[C@H]1NC[C@@H]2ON=C(Br)[C@@H]21 | -1
Cc1nc2sc3ccccc3n2c(=O)c1/N=N/c1ccc(Cl)cc1 | -1
Fc1cc(C2=Nn3c(CNc4ccc(Cl)cc4)nnc3S/C2=C\c2ccc(-c3ccc(Cl)cc3)o2)c(Cl)cc1Cl | -1
O=C(Cn1c2ccc(Br)cc2c2nc3ccccc3nc21)NCc1ccccc1 | -1
N#C/C(C(=O)Nc1ccccc1)=C(/N)N1CCCC1 | -1
CC1(CCCO)CCCCCC(C)(CCCO)C1=O (stereo not given) | -1
C=C1CCC2C(C)(CO)C(O)CCC2(C)C1C/C=C1\C(=O)OCC1O (stereo not given) | -1
CN1CCN(CN2C(=O)C3C4C=CC(C3C2=O)C2C(=O)N(CN3CCN(C)CC3)C(=O)C42)CC1 (stereo not given) | -1
C=C(Br)C(Cl)(CBr)CCC(Br)C(C)(C)Cl (stereo not given) | -1
CC1=C(C(=O)OCCc2ccc([N+](=O)[O-])cc2)C(c2ccccc2[N+](=O)[O-])C(C(=O)OC(C)C)=C(C)N1 (stereo not given) | -1
Cn1c2ccccc2n2c3ncccc3c(=O)cc12 | -1
COC(=O)C1CCC(=O)N1C(c1ccccc1)c1ccc(OC)c(OC)c1 (stereo not given) | -1
CNC/C(Cl)=N/S(=O)(=O)c1ccc(C)cc1 | -1
Cc1ccc(C(=O)Nc2ccc(S(=O)(=O)O)c3cc(S(=O)(=O)O)cc(S(=O)(=O)O)c23)cc1N | -1
COc1cc2c(cc1OC)C(=O)/C(=C/c1ccc([N+](=O)[O-])cc1)CC2 | -1
O=C(NNC(=O)c1ccncc1)C(=O)Nc1cc(Cl)c(Cl)cc1Cl | -1
COC(=O)/C=c1/c2ccccc2n2c1c1ccccc1[n+]2C | -1
O=C(O)CCc1nc2c(n1-c1ccccc1)C(=O)c1ccccc1C2=O | -1
CC1CCC2C(C(=O)O[C@H]3C4C=CO[C@@H](OC5OC(CO)C(O)C(O)C5O)C4[C@@]4(CO)O[C@@H]34)=CO[C@@H](OC3OC(CO)C(O)C(O)C3O)C12 (stereo not given in full) | -1
CC1=CC2=C(C(N)=O)C(=O)OC2(C)C(c2ccccc2)C1 (stereo not given) | -1
O=C1/C(=C\c2ccccc2)C(NC2CCCCC2)c2ccccc21 (stereo not given) | -1
Nc1ccc2c(c1)N(C(=O)CCCC(=O)N1CC(CCl)c3ccc(N)cc31)CC2CCl (stereo not given) | 1
O=[N+]([O-])C(/C=C(\Cl)[N+](=O)[O-])=C(Nc1ccccc1)Nc1ccccc1 | -1
CC(=O)O[C@H]1C(=O)[C@@]2(C)C(C(OC(=O)c3ccccc3)[C@]3(O)CC(OC(=O)[C@H](OC(=O)CCC(=O)O)C(NC(=O)c4ccccc4)c4ccccc4)C(C)=C1C3(C)C)C1(OC(C)=O)COC1C[C@@H]2O (stereo not given in full) | 1
Cc1nc2nc3c(ncn3COCCO)c(O)n2c1C(c1ccccc1)(c1ccccc1)c1ccccc1 | -1

These data points were gathered from ChEMBL document CHEMBL1201862.
